assayProtocol: Ratio of unbound drug level in brain to plasma in Sprague-Dawley rat at 60 mg/kg, po measured at 1 hr
Assay type: ADME, organism-based
Parameters: dose 60 mg/kg, route oral
assayConditions: brain and plasma (unbound), read-out: K(p,uu,brain)
readoutLabel: Kp uu at 1 h
Simply state the number, no unit and no words.

Challenge: Give the measured Kp uu at 1 h for "CN1C(=O)[C@]2(N=C1N)c1cc(-c3cccnc3F)ccc1O[C@H]1CCOC[C@@H]12"
Response given: 0.022

---

concentration at 3 h: recorded values
assayProtocol: Drug uptake in Hartley guinea pig CSF at 60 mg/kg, po measured at 3 hrs
Assay type: ADME, organism-based, Cavia porcellus, Cerebrospinal fluid
Design: dose 60 mg/kg, route oral
assayConditions: read-out: Drug uptake

Challenge: Hello, please tell me recorded concentration at 3 h for this one: "CN1C(=O)[C@]2(N=C1N)c1cc(-c3cccnc3F)ccc1O[C@H]1CCOC[C@@H]12"
Response given: 23 nM

Now for a further compound.
Challenge: Tell me its concentration at 3 h given "CN1C(=O)[C@]2(N=C1N)c1cc(-c3cccc(C#N)c3)ccc1O[C@H]1CCOC[C@@H]12" as the entry.
Response given: 90 nM

---

assayProtocol: Intrinsic clearance in cynomolgus monkey hepatocytes at 2 uM after 60 to 120 mins
Type: ADME, cell-based, Macaca fascicularis, Hepatocyte
assayConditions: read-out: CLH
readoutLabel: CLint scaled at 2 µM (mL/min/kg)
Give the quantity in mL/min/kg, number only.

Challenge: Tell me its CLint scaled at 2 µM given "CN1C(=O)[C@]2(N=C1N)c1cc(-c3cccnc3F)ccc1O[C@H]1CCOC[C@@H]12" as the entry.
Response given: 5.8

---

Below, each entry is listed with its recorded Cp(f).
Test system: Plasma
assayProtocol: Unbound plasma concentration in CD-1 mouse at 3 mg/kg, iv and 10 mg/kg, po measured at 1 hr
Assay type: ADME, organism-based
assayConditions: in vivo
Give the number; nM is assumed, so skip it.

The examples below pair each entry with its known result.
Challenge: Supply reported Cp(f) belonging to this molecule: CN1C(=O)[C@]2(N=C1N)c1cc(-c3cccnc3F)ccc1O[C@H]1CCOC[C@@]12C (racemic)
Response given: 53

Challenge: Recall and state the measured Cp(f) for "C[C@]12CCOC[C@@H]1[C@]1(COC(N)=N1)c1cc(-c3cc(F)cc(Cl)c3)ccc1O2" .
Response given: 9.5

Challenge: Complete the entry with Cp(f) for "CN1C(=O)[C@]2(N=C1N)c1cc(-c3cccnc3F)ccc1O[C@H]1CCOC[C@@H]12"
Response given: 300

Field: next molecule
Challenge: Specify measured Cp(f) for CN1C(=O)[C@]2(N=C1N)c1cc(-c3cncc(F)c3)ccc1O[C@H]1CCOC[C@@H]12 (racemic) .
Response given: 160

---

assayProtocol: Ratio of unbound drug level in brain to plasma in Hartley guinea pig at 60 mg/kg, po measured at 8 hrs
Type: ADME, organism-based, Cavia porcellus
Design: dose 60 mg/kg, route oral
assayConditions: brain and plasma (unbound), read-out: K(p,uu,brain)
readoutLabel: Kp uu at 8 h

Challenge: Tell us which Kp uu at 8 h value is on record for "CN1C(=O)[C@]2(N=C1N)c1cc(-c3cccnc3F)ccc1O[C@H]1CCOC[C@@H]12"
Response given: > 1.7

---

assayProtocol: Ratio of unbound drug level in brain to plasma in CD-1 mouse measured at 1 hr
Assay type: ADME
assayConditions: CD-1, mouse, read-out: K(p,uu,brain)
readoutLabel: Kp uu at 1 h
Please reply with the value in numeric form only.

Challenge: Please list Kp uu at 1 h recorded for the compound "C[C@]12CCOC[C@@H]1[C@]1(COC(N)=N1)c1cc(-c3cc(F)cc(Cl)c3)ccc1O2"
Response given: 0.76

Challenge: Supply reported Kp uu at 1 h belonging to this compound: C[C@]12CCOC[C@@H]1[C@]1(COC(N)=N1)c1cc(-c3cncc(Cl)c3)ccc1O2 (racemic)
Response given: 0.082

Lab note: next compound to report on.
Challenge: Give recorded Kp uu at 1 h. CN1C(=O)[C@]2(N=C1N)c1cc(-c3cccc(C#N)c3)ccc1O[C@H]1CCOC[C@@H]12 (racemic)
Response given: 0.014

---

assayProtocol: Drug uptake in Hartley guinea pig CSF at 60 mg/kg, po measured at 5 hrs
Format: ADME, organism-based, Cavia porcellus, Cerebrospinal fluid
Parameters: dose 60 mg/kg, route oral
assayConditions: read-out: Drug uptake
readoutLabel: concentration at 5 h

Challenge: Please indicate concentration at 5 h recorded for "CN1C(=O)[C@]2(N=C1N)c1cc(-c3cccnc3F)ccc1O[C@H]1CCOC[C@@H]12"
Response given: 6.9 nM

Now, please, on to the next compound.
Challenge: State, in one line, measured concentration at 5 h of "CN1C(=O)[C@]2(N=C1N)c1cc(-c3cccc(C#N)c3)ccc1O[C@H]1CCOC[C@@H]12"
Response given: 40 nM

---

assayProtocol: Drug uptake in Sprague-Dawley rat CSF at 60 mg/kg, po measured at 1 hr
Type: ADME, organism-based, Cerebrospinal fluid
Set-up: dose 60 mg/kg, route oral
assayConditions: read-out: Drug uptake
readoutLabel: concentration at 1 h (nM)
# number only, unit nM dropped from output

Challenge: For the compound "CN1C(=O)[C@]2(N=C1N)c1cc(-c3cccnc3F)ccc1O[C@H]1CCOC[C@@H]12" , give its reported concentration at 1 h.
Response given: 290

---

assayProtocol: Drug uptake in Hartley guinea pig CSF at 30 mg/kg, po measured at 3 hrs
Type: ADME, organism-based, Cavia porcellus, Cerebrospinal fluid
Design: dose 30 mg/kg, route oral
assayConditions: read-out: Drug uptake
readoutLabel: concentration at 3 h

Challenge: Specify measured concentration at 3 h for "CN1C(=O)[C@]2(N=C1N)c1cc(-c3cccnc3F)ccc1O[C@H]1CCOC[C@@H]12" .
Response given: 9.9 nM

---

assayProtocol: Ratio of unbound drug level in brain to plasma in Hartley guinea pig at 60 mg/kg, po measured at 3 hrs
Assay type: ADME, organism-based, Cavia porcellus
Set-up: dose 60 mg/kg, route oral
assayConditions: brain and plasma (unbound), read-out: K(p,uu,brain)
readoutLabel: Kp uu at 3 h
Kindly provide the number alone.

Challenge: Specify measured Kp uu at 3 h for "CN1C(=O)[C@]2(N=C1N)c1cc(-c3cccc(C#N)c3)ccc1O[C@H]1CCOC[C@@H]12" .
Response given: 0.046

Others:
Challenge: Look up Kp uu at 3 h of "CN1C(=O)[C@]2(N=C1N)c1cc(-c3cccnc3F)ccc1O[C@H]1CCOC[C@@H]12" and report it.
Response given: 1.5

---

assayProtocol: Clearance in Hartley guinea pig liver microsomes at 1 uM after 20 mins by LC-MS/MS analysis in presence of NADPH
Assay type: ADME, Cavia porcellus, Microsome
assayConditions: read-out: CLH
readoutLabel: CLint scaled at 1 µM (mL/min/kg)
Record the value in mL/min/kg, omitting the unit from your answer.

Challenge: Name the recorded CLint scaled at 1 µM of the molecule listed here: "CN1C(=O)[C@]2(N=C1N)c1cc(-c3cccnc3F)ccc1O[C@H]1CCOC[C@@H]12"
Response given: 17

---

assayProtocol: Drug uptake in cynomolgus monkey CSF at 0.5 mg/kg, iv and 100 mg/kg, po measured at 4 hrs
Format: ADME, organism-based, Macaca fascicularis, Cerebrospinal fluid
assayConditions: read-out: Drug uptake
readoutLabel: concentration at 4 h (µM)
The response must be a number in µM with no trailing unit.

Challenge: Annotate the compound "CN1C(=O)[C@]2(N=C1N)c1cc(-c3cccnc3F)ccc1O[C@H]1CCOC[C@@H]12" with its measured concentration at 4 h.
Response given: 0.084

---

assayProtocol: Clearance in CD-1 mouse liver microsomes at 1 uM after 20 mins by LC-MS/MS analysis in presence of NADPH
Assay type: ADME, Microsome
Rule for this label: true (1) means CLhep predicted at 1 µM is less than 30 mL/min/kg; false (0) means CLhep predicted at 1 µM is at least 30 mL/min/kg.

Past entries and their recorded results:
Challenge: Lab note: CLhep predicted at 1 µM threshold 30 mL/min/kg. Does this compound come in strictly under it? CN1C(=O)[C@]2(N=C1N)c1cc(-c3cncc(F)c3)ccc1O[C@H]1CCOC[C@@H]12 (racemic)
Response given: false (0)

Challenge: Problem: For the compound CN1C(=O)[C@]2(N=C1N)c1cc(-c3cccnc3F)ccc1O[C@H]1CCOC[C@@H]12 (racemic) , is CLhep predicted at 1 µM under 30 mL/min/kg?
Response given: false (0)

Challenge: Record CN1C(=O)[C@]2(N=C1N)c1cc(-c3cccc(OC(F)F)c3)c(F)cc1O[C@H]1CCOC[C@@H]12 (racemic) : is its CLhep predicted at 1 µM strictly below 30 mL/min/kg?
Response given: true (1)

Challenge: Please determine if "C[C@]12CCOC[C@@H]1[C@]1(COC(N)=N1)c1cc(-c3cc(F)cc(Cl)c3)ccc1O2" is below 30 mL/min/kg in terms of CLhep predicted at 1 µM.
Response given: false (0)

Challenge: Here's an entry: CN1C(=O)[C@]2(N=C1N)c1cc(-c3cc(F)cc(Cl)c3)ccc1O[C@H]1CCOC[C@@H]12 (racemic) . Is its CLhep predicted at 1 µM below 30 mL/min/kg?
Response given: false (0)

Continuing:
Challenge: hey, is CLhep predicted at 1 µM for CN1C(=O)[C@]2(N=C1N)c1cc(-c3cccc(C#N)c3)ccc1O[C@H]1CCOC[C@@H]12 (racemic) lower than 30 mL/min/kg or not?
Response given: true (1)

Challenge: Please indicate whether the reported CLhep predicted at 1 µM of CN1C(=O)[C@]2(N=C1N)c1cc(-c3cccnc3F)c(F)cc1O[C@H]1CCOC[C@@H]12 (racemic) is strictly below 30 mL/min/kg.
Response given: false (0)

Challenge: Criterion: CLhep predicted at 1 µM strictly below 30 mL/min/kg. Is it met by C[C@H]1OCC[C@H]2Oc3ccc(-c4cccnc4F)cc3[C@]3(N=C(N)N(C)C3=O)[C@H]12 (racemic) ?
Response given: false (0)
